target: Estrogen receptor (Homo sapiens); test: qHTS assay to identify small molecule antagonists of the estrogen receptor alpha (ER-alpha) signaling pathway using the BG1 cell line in the presence of 0.1 nM 17-beta-estradiol (AID 1259244); conditions: VM7Luc4E2 (BG1) ERE-luciferase, antagonist mode, 0.1 nM E2, 22 h; series mostly up to 92.4 µM; further: nearly all actives have a fitted effect of over 50% in size
Inconclusive results are not listed. Calls of active or inactive are those of the source. The call rests on the fitted dose curve; in most records, active means well fitted inhibition curve with a large enough effect in the repeat runs; inconclusive means weak or mixed curves; inactive means no such curve, though single readings can be large or run the other way.
valueKind: outcome

> print(dat)
                                   compound  valuekind  observedresult
1                                    CN(C)C    outcome        inactive
2  CC(=O)Oc1c(C)c(C)c2c(c1C)CC[C@@](C)(CCC[C@H](C)CCC[C@H](C)CCCC(C)C)O2    outcome        inactive
3                            c1ccc2ncccc2c1    outcome        inactive
4                                      NCCN    outcome        inactive
5                       Cc1ccc(C(C)(C)C)cc1    outcome        inactive

Each of the following entries comes with a recorded value; kindly state outcome for each.
1. CC(C)(C)c1cccc(C(C)(C)C)c1O
2. Oc1c(Cl)ccc(Cl)c1Cl
3. O=C1CCc2ccccc2O1

inactive
inactive
inactive

Provide reported outcome for each item, in the same order as listed.
1. COc1ccc(-c2coc3cc(O)cc(O)c3c2=O)cc1
2. COC(=O)c1ccc(C)cc1

inactive
inactive
